test.description: AUC (0 to infinity) in Sprague-Dawley rat at 10 mg/kg, ip administered as single dose by LC-MS/MS analysis
Assay type: ADME, organism-based
Design: dose 10 mg/kg, time infinity, route intraperitoneal
assay.setup: in vivo
observable: AUC(0-inf) (µg·h/mL)
The figure you give is taken to be in µg·h/mL; do not add the unit.

Query string: If you can, please state the reported AUC(0-inf) value of `CN(C/C=C/c1ccc(-c2ccccc2)cc1)Cc1coc2ccccc12.Cl` .
Result string: 1090

====

Parameter pIC50: see the listing below.
target.of.assay: 4,4'-diapophytoene desaturase (4,4'-diaponeurosporene-forming) (Staphylococcus aureus (strain Newman))
Sequence (O07855 whole entry): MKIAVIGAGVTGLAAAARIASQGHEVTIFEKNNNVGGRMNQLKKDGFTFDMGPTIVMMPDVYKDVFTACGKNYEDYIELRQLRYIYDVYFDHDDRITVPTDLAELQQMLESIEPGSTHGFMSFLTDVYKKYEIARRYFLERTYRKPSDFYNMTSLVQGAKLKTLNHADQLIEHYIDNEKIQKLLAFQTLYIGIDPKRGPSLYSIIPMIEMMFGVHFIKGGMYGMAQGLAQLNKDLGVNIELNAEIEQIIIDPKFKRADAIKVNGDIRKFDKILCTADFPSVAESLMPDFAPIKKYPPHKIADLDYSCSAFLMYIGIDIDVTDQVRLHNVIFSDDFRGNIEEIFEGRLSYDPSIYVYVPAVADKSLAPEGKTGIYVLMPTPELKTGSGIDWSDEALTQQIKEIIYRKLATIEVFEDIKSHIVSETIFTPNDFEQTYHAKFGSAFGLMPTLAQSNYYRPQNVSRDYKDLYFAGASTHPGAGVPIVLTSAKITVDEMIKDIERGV
test.description: Inhibition of Staphylococcus aureus Newman 6His-tagged CrtN expressed in Escherichia coli BL21 (DE3)/pET28a::CrtN assessed as reduction in staphyloxanthin levels using diapophytoene as substrate after overnight incubation by spectrophotometric analysis
Parameters: species or system Staphylococcus aureus subsp. aureus str. Newman
Just the number, please; pIC50 means minus log10 of the concentration in mol/L.

Examples with their reported pIC50 follow.
> print(dat)
                            chemical.string  observable  numeric.value
1  CN(C/C=C/c1ccc(-c2ccccc2)cc1)Cc1coc2ccccc12.Cl       pIC50           6.40
2  CN(C/C=C/c1ccc(C(F)(F)F)cc1)Cc1cccc2ccoc12.Cl       pIC50           6.52

Query string: Query (compound): `CN(C/C=C/c1ccc(-c2ccccc2)cc1)Cc1cccc2cc[nH]c12.Cl` ; field requested: pIC50
Result string: 6.70

====

target.of.assay: 4,4'-diapophytoene desaturase (4,4'-diaponeurosporene-forming) (Staphylococcus aureus (strain Newman), UniProt O07855)
test.description: Inhibition of CrtN in Staphylococcus aureus Newman assessed as reduction in staphyloxanthin levels after 48 hrs by spectrophotometric method-based pigment inhibition assay
Set-up: species or system Staphylococcus aureus subsp. aureus str. Newman
Below: a set of entries, each annotated with reported pIC50.
Quick note: pIC50 values are minus log10 of concentrations in mol/L.

In the examples that follow, each entry is paired with its recorded pIC50.
> print(dat)
                            chemical.string  numeric.value
1  CN(C/C=C/c1ccc(Cl)cc1Cl)Cc1cccc2cc[nH]c12           6.55
2  CN(C/C=C/c1ccccc1[N+](=O)[O-])Cc1coc2ccccc12           7.13
3  CN(C/C=C/c1ccc(C(F)F)cc1)Cc1cccc2cc[nH]c12           7.36
4  CN(C/C=C/c1ccc(C(F)(F)F)cc1F)Cc1coc2ccccc12           8.04

Then this compound:
Query string: Need pIC50 of `CN(C/C=C/c1ccc(C(F)(F)F)cc1)Cc1ccc2cc[nH]c2c1` , thanks.
Result string: 7.19

====

test.description: AUC (0 to 24 hrs) in mouse at 2 mg/kg, iv administered as single dose by LC-MS/MS analysis
Type: ADME, organism-based
Parameters: dose 2 mg/kg, time < 24 hr, route intravenous
assay.setup: in vivo
observable: AUC(0-t) at 24 h (ng·h/mL)
A number alone suffices; assume ng·h/mL.

Query string: Quick one: AUC(0-t) at 24 h of `CN(C/C=C/c1ccc(-c2ccccc2)cc1)Cc1coc2ccccc12.Cl` ?
Result string: 1070

====

test.description: Cytotoxicity against HEK293 cells after 43 hrs by Alamar blue dye-based fluorescence assay
Type: cell-based
assay.setup: human
Each entry below carries its recorded log10 of CC50 at 43 h.
Record value = log10 of CC50 at 43 h given in µM.

Completed entries (count: 4):
compound	log10 of CC50 at 43 h
CN(C/C=C/c1ccc(Cl)cc1)Cc1coc2ccccc12	1.62
CN(C/C=C/c1ccc(Br)cc1)Cc1coc2ccccc12	1.62
CN(C/C=C/c1ccc(-c2ccccc2)cc1)Cc1coc2ccccc12.Cl	1.68
CN(C/C=C/c1ccc(-c2ccccc2)cc1)Cc1cccc2cc[nH]c12.Cl	1.42

Note: attention shifts to another entry.
Query string: So what does the record say about log10 of CC50 at 43 h for C[C@@H]1[C@H](O)[C@@H](C)/C=C/C=C/C=C/C=C/C=C/C=C/C=C/[C@H](O[C@@H]2O[C@H](C)[C@@H](O)[C@H](N)[C@@H]2O)C[C@@H]2O[C@](O)(C[C@@H](O)C[C@@H](O)[C@H](O)CC[C@@H](O)C[C@@H](O)CC(=O)O[C@H]1C)C[C@H](O)[C@H]2C(=O)O [AMPHOTERICIN B] ?
Result string: 0.62

====

test.description: AUC (0 to 24 hrs) in Sprague-Dawley rat at 5 mg/kg, iv administered as single dose by LC-MS/MS analysis
Format: ADME, organism-based
Set-up: dose 5 mg/kg, time < 24 hr, route intravenous
assay.setup: in vivo
observable: AUC(0-t) at 24 h (ng·h/mL)
Provide the reading as a plain figure in ng·h/mL.

Query string: Given the entry `CN(C/C=C/c1ccc(-c2ccccc2)cc1)Cc1coc2ccccc12.Cl` , report its measured AUC(0-t) at 24 h.
Result string: 2810

====

test.description: Oral bioavailability in mouse at 10 mg/kg administered as single dose by LC-MS/MS analysis
Format: ADME, organism-based
assay.setup: in vivo
observable: bioavailability (%)
Quick reminder: number only, in %, skip the unit.

Query string: // lookup bioavailability for `CN(C/C=C/c1ccc(-c2ccccc2)cc1)Cc1coc2ccccc12.Cl`
Result string: 83.8

====

test.description: AUC (0 to 24 hrs) in Sprague-Dawley rat at 10 mg/kg, ip administered as single dose by LC-MS/MS analysis
Format: ADME, organism-based
Design: dose 10 mg/kg, time < 24 hr, route intraperitoneal
assay.setup: in vivo
observable: AUC(0-t) at 24 h (µg·h/mL)
Record the value in µg·h/mL, omitting the unit from your answer.

Query string: Which measured AUC(0-t) at 24 h value corresponds to `CN(C/C=C/c1ccc(-c2ccccc2)cc1)Cc1coc2ccccc12.Cl` ?
Result string: 975

====

test.description: Inhibition of CrtN in methicillin-resistant Staphylococcus aureus HS663 assessed as reduction in staphyloxanthin levels after 48 hrs by spectrophotometric method-based pigment inhibition assay
observable: IC50 (nM)
Give just the number in nM; leave the unit off.

Query string: Looking for the measured IC50 of `CN(C/C=C/c1ccc(-c2ccccc2)cc1)Cc1coc2ccccc12.Cl` , can you help?
Result string: 0.02

====

test.description: Half life in Sprague-Dawley rat at 5 mg/kg, iv administered as single dose by LC-MS/MS analysis
Assay type: ADME, organism-based
assay.setup: in vivo
observable: half-life (h)
Provide only the numeric value, understood in h.

Query string: Name the reported half-life value associated with the molecule `CN(C/C=C/c1ccc(-c2ccccc2)cc1)Cc1coc2ccccc12.Cl`
Result string: 2.46

====

Reported values of IC50 for individual entries
target.of.assay: 4,4'-diapophytoene desaturase (4,4'-diaponeurosporene-forming) (Staphylococcus aureus (strain Newman), UniProt O07855)
Sequence (O07855 whole entry): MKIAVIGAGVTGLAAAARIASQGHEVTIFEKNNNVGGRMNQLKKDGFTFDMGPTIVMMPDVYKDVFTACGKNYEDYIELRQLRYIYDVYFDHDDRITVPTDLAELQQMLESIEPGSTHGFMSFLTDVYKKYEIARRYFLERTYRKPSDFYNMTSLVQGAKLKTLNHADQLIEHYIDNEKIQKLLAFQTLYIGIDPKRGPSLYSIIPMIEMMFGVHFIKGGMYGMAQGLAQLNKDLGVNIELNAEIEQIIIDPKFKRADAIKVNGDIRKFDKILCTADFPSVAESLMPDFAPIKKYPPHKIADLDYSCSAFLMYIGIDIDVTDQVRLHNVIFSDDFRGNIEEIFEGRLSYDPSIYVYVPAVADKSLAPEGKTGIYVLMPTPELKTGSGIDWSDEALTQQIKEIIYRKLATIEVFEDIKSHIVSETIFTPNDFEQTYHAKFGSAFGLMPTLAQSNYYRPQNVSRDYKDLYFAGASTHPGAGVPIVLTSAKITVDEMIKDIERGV
test.description: Inhibition of CrtN in Staphylococcus aureus Newman assessed as reduction in staphyloxanthin levels after 48 hrs by spectrophotometric method-based pigment inhibition assay
Set-up: species or system Staphylococcus aureus subsp. aureus str. Newman

# count of solved cases: 10
> print(dat)
                                    compound  observable     result
 1  CCN(C/C=C/c1ccc(C(F)(F)F)cc1)CC1=COC2C=CC=CC12 (stereo unspecified)        IC50  > 1000 nM
 2     CCOc1ccc(/C=C/CN(C)Cc2coc3ccccc23)cc1        IC50  > 1000 nM
 3  CN(C/C=C/c1ccc(C(F)(F)F)c(F)c1)Cc1coc2ccccc12        IC50  > 1000 nM
 4   COc1ccc(/C=C/CN(C)Cc2coc3ccccc23)c(F)c1        IC50  > 1000 nM
 5  CCN(C/C=C/c1ccc(C(F)(F)F)cc1)Cc1cccc2cc[nH]c12        IC50     118 nM
 6    CN(C/C=C/c1cccc(F)c1)Cc1cccc2cc[nH]c12        IC50  > 1000 nM
 7  C/C(=C\c1ccc(-c2ccccc2)cc1)CN(C)Cc1cccc2cc[nH]c12        IC50  > 1000 nM
 8       Cc1cccc(/C=C/CN(C)Cc2coc3ccccc23)c1        IC50  > 1000 nM
 9  CN(C/C=C/c1ccc(C(F)(F)F)cc1)Cc1cc2ccccc2s1        IC50     102 nM
10  CN(C/C=C/c1ccc2ccccc2c1)Cc1cccc2cc[nH]c12        IC50     132 nM

Query string: I'd like to know its IC50. The compound in question is `CN(C/C=C/c1cccc(F)c1)Cc1coc2ccccc12`
Result string: > 1000 nM
